Each recorded value in this set is attributed to BigSolDB 2.1.

# conditionSet: in isopropanol, 293.15 K
outcomeMeasure: solubility (mole fraction)
Give the figure only, with no unit attached.

Prompt: What solubility (mole fraction) value was documented for this molecule, CCOC(=O)C1(c2ccccc2)CCN(CCC(C#N)(c2ccccc2)c2ccccc2)CC1 ?
Response: 0.000274

* * *

# conditionSet: in methanol, 283.15 K
outcomeMeasure: solubility (mole fraction)
Returns: the value as a bare number; no unit string appended.

Prompt: Data request, read-out solubility (mole fraction), for CCOC(=O)C1(c2ccccc2)CCN(CCC(C#N)(c2ccccc2)c2ccccc2)CC1
Response: 0.00419

* * *

# conditionSet: in acetonitrile, 298.15 K
outcomeMeasure: solubility (mole fraction)
Enter a number only.

Prompt: Given the compound CCOC(=O)C1(c2ccccc2)CCN(CCC(C#N)(c2ccccc2)c2ccccc2)CC1 , what is its reported solubility (mole fraction)?
Response: 0.00492
